FYI, the data here is from PubChem BioAssay AID1159580.

# PROTOCOL DETAILS: chemical genetic growth profiling, strain panel (AID 1159580);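 further: tested at 20 µM; growth read once vehicle control cultures reached saturation at 30 °C; 1 = growth at the plate median or of vehicle wells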
# RUN PARAMETERS: S. cerevisiae deletion strains, growth OD, locus YOL006C, strain TOP1, stronger effect = lower value
Out of some 5,500 compounds screened, about 2,000 (36%) were called active. Not shown: some 18% with an inconclusive outcome. This is one part of the list.
normalized growth under 1 gets Criterion met, anything at or over 1 gets Criterion not met.

Q: Determine whether this molecule shows normalized growth lower than 1 (ties excluded): `NC(N)=NC(N)=Nc1ccc2c(c1)OCCO2`
A: Criterion not met

Q: Is normalized growth strictly under 1 for the entry `CS(=O)(=O)Nc1ccc([N+](=O)[O-])cc1Oc1ccccc1` ?
A: Criterion met

Q: Hello, is normalized growth of the following molecule strictly smaller than 1? CC(=O)OC1CCC2(C)C(CC(OC(C)=O)C3(C)C4=CC(=O)OC(c5ccoc5)C4(C)CCC23)C1(C)C (stereo not drawn)
A: Criterion met

Q: In the record for `N#CCCC1(CCC#N)c2ccccc2-c2ccccc21` , is normalized growth less than 1?
A: Criterion not met

Q: Please state whether normalized growth is below 1 for `Fc1cc(F)cc(COc2cc(Cl)cc(Cl)c2)c1`
A: Criterion met

Q: Identify whether the molecule CC12CCC3C(CC3(C)C)C(C)(CCC1=O)O2 (stereo not drawn) records normalized growth below 1.
A: Criterion not met

Q: Check if normalized growth falls below 1 for CC(=O)O[C@@H]1C=C[C@@]2(C)C(C[C@@H](OC(C)=O)[C@@]3(C)C4=CC(=O)O[C@@H](c5ccoc5)[C@]4(C)CCC23)C1(C)C (stereo partly drawn) .
A: Criterion met

Q: Strictly below 1 in normalized growth? CC(C)(C)NCC(O)c1ccc(O)c(CO)c1 (stereo not drawn)
A: Criterion not met

Q: Say whether its normalized growth is strictly beneath 1. Entry: `CCOC(=O)[C@H](CCc1ccccc1)N[C@@H](C)C(=O)N1CCC[C@H]1C(=O)O`
A: Criterion not met

Q: Hi there! Is normalized growth for `C=C1C[C@]23C[C@@]1(O)CC[C@H]2[C@@]12C=C[C@H](O)[C@@](C)(C(=O)O1)[C@H]2[C@@H]3C(=O)O` below 1, do you know?
A: Criterion met

Q: Input `Oc1cccc(O)c1` ; condition: normalized growth strictly below 1. Does it hold?
A: Criterion not met

---

# PROTOCOL DETAILS: chemical genetic growth profiling, strain panel (AID 1159580);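 further: tested at 20 µM; growth read once vehicle control cultures reached saturation at 30 °C; 1 = growth at the plate median or of vehicle wells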
# RUN PARAMETERS: S. cerevisiae deletion strains, growth OD, locus YNL224C, strain SQS1, stronger effect = lower value
Screen size: about 5,500 compounds; about 2,000 (36%) were called active. Not shown: some 18% with an inconclusive outcome. The list shows a part of the results.
RECORDED METRIC: normalized growth
Please reply with the value in numeric form only.

Q: Please look up its normalized growth: CC(N)(C(=O)O)c1ccc(C(=O)O)cc1 (stereo unspecified)
A: 1

Q: Would you mind telling me what normalized growth value was observed for CCC1(O)CC2CN(CCc3c([nH]c4ccccc34)[C@@](C(=O)OC)(c3cc4c(cc3OC)N(C)C3[C@]45CCN4CC=C[C@@](CC)([C@@H](OC(C)=O)[C@]3(O)C(=O)OC)[C@H]45)C2)C1 (stereo partly specified) ?
A: 1.04

Q: Data request, read-out normalized growth, for COc1cc(CC(C)N)c(OC)cc1I (stereo unspecified)
A: 0.997

Q: State the recorded normalized growth for this entry: `C/C(=C\c1ccc(C(=O)O)cc1)c1ccc2c(c1)C(C)(C)CCC2(C)C`
A: 1

Q: What does the record list as normalized growth for `NNCc1cccc(O)c1` ?
A: 0.987

Q: Look up normalized growth: Cc1o[nH]c(=O)c1CC(N)C(=O)O (stereo unspecified)
A: 1.01

Q: What measured normalized growth goes with `CCc1cccc(N(C)C(N)=Nc2cccc3ccccc23)c1` ?
A: 0.993
